Attribution: patent US10421754B2

What follows is a collection of IC50 values obtained with KDR (Homo sapiens, UniProt P35968).
Sequence (P35968 20-1356): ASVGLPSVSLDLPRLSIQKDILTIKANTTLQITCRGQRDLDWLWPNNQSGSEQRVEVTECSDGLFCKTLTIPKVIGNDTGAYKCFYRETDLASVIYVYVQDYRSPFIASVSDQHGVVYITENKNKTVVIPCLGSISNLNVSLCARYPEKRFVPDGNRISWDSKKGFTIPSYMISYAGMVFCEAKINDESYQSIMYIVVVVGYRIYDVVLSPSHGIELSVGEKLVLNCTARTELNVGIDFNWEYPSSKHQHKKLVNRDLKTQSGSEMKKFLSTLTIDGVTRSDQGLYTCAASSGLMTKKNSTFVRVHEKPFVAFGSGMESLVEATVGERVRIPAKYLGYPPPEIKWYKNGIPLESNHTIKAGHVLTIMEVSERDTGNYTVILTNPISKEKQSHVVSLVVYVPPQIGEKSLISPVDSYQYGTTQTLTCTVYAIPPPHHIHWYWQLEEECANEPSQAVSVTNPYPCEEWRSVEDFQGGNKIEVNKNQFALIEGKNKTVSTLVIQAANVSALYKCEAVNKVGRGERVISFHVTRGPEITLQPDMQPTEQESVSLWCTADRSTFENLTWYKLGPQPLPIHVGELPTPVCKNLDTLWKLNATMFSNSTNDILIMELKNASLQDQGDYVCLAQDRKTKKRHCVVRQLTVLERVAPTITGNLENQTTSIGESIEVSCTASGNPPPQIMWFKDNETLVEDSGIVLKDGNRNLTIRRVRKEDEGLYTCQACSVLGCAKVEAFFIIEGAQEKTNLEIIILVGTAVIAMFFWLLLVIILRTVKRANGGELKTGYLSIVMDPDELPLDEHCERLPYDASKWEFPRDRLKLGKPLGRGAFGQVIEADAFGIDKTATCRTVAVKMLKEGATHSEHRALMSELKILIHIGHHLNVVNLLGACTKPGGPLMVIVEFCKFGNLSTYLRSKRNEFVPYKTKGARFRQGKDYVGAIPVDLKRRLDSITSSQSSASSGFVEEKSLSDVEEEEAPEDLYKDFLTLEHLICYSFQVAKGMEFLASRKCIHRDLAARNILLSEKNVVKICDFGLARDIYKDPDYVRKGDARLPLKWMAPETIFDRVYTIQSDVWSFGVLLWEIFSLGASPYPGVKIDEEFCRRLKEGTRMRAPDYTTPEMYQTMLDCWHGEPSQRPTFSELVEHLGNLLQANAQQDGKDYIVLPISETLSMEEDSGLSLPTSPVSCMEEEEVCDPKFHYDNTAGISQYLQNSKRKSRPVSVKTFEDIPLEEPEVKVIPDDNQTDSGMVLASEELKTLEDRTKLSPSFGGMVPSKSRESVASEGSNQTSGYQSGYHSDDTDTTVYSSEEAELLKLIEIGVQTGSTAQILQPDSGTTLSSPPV
A complete answer gives the number and then names the unit.

As a guide, the following entries are already answered.
compound: COc1cc2c(Nc3ccc(Cl)cc3F)ncnc2cc1OCCCN1CCCC1 [Compound 44, reference compound]
IC50: 40.5 nM

compound: COc1cc2c(Nc3ccc(F)c(Cl)c3)ncnc2cc1OCCCCN1CCCC1 [Compound 40]
IC50: 18.7 nM

compound: COc1cc2c(Nc3ccc(Br)cc3F)ncnc2cc1OCCCN1CCCCC1 [Compound 45, reference compound]
IC50: 38.6 nM

compound: COc1cc2c(Nc3ccc(Br)cc3F)ncnc2cc1OCCCCN1CCCC1 [Compound 30]
IC50: 15.7 nM

query: Request: IC50, test system KDR (Homo sapiens, UniProt P35968), entry COc1cc2c(Nc3ccc(Br)cc3F)ncnc2cc1OCCCCN(C)C [Compound 28]
result: 18.4 nM

query: Then what about the compound COc1cc2c(Nc3ccc(F)c(Cl)c3)ncnc2cc1OCCCN1CCCC1 [Compound 39] ?
result: 18.9 nM
